Listed here: items and their measured heart frequency after.
# System: mongrel cats
# procedure.details: Inotropic and heart-circulatory effectiveness on narcotised cats, intravenous
# Type: in vivo, cat
# measurement.setup: 1.00 mg/kg i.v.; 6 animals

compound: C=CCc1ccccc1OCC(O)CN[C@H]1CO[C@H]2[C@@H]1OC[C@@H]2O[N+](=O)[O-] (stereo partly shown)
test.system: mongrel cats
heart frequency after / min⁻¹: 188.4
//
compound: O=[N+]([O-])O[C@H]1CO[C@H]2[C@@H]1OC[C@@H]2NCC(O)COc1cccc(C(F)(F)F)c1 (stereo partly shown)
test.system: mongrel cats
heart frequency after / min⁻¹: 217.3
//
compound: O=[N+]([O-])O[C@H]1CO[C@H]2[C@@H]1OC[C@H]2NCC(O)COc1cccc2ccccc12 (stereo partly shown)
test.system: mongrel cats
heart frequency after / min⁻¹: 154.0
//
compound: O=[N+]([O-])O[C@H]1CO[C@H]2[C@@H]1OC[C@@H]2NCCCc1ccccc1
test.system: mongrel cats
heart frequency after / min⁻¹: 227.0

###

# Test system: narcotised guinea pigs
# procedure.details: Blood pressure experiments on guinea pigs, i.v.
# Type: in vivo, guinea pig
# measurement.setup: 0.25 mg/kg i.v.
Listed here: items and their measured blood pressure after.

molecule: C=CCc1ccccc1OCC(O)CN[C@H]1CO[C@H]2[C@@H]1OC[C@@H]2O[N+](=O)[O-] (stereo partly shown)
test.system: narcotised guinea pigs
blood pressure after / mm.Hg: 43.50
//
molecule: CCOc1ccccc1OCC(O)CN[C@H]1CO[C@H]2[C@@H]1OC[C@@H]2O[N+](=O)[O-] (stereo partly shown)
test.system: narcotised guinea pigs
blood pressure after / mm.Hg: 41.25
//
molecule: O=[N+]([O-])O[C@H]1CO[C@H]2[C@@H]1OC[C@@H]2NCC(O)COc1cccc(C(F)(F)F)c1 (stereo partly shown)
test.system: narcotised guinea pigs
blood pressure after / mm.Hg: 60.50
//
molecule: N#Cc1ccccc1OCC(O)CN[C@H]1CO[C@H]2[C@@H]1OC[C@@H]2O[N+](=O)[O-] (stereo partly shown)
test.system: narcotised guinea pigs
blood pressure after / mm.Hg: 39.25
//
molecule: O=[N+]([O-])O[C@H]1CO[C@H]2[C@@H]1OC[C@@H]2NCC(O)COc1cccc2ccccc12 (stereo partly shown)
test.system: narcotised guinea pigs
blood pressure after / mm.Hg: 62.25
//
molecule: O=[N+]([O-])O[C@H]1CO[C@H]2[C@@H]1OC[C@@H]2N1CCOCC1
test.system: narcotised guinea pigs
blood pressure after / mm.Hg: 59.50
//
molecule: O=[N+]([O-])O[C@H]1CO[C@H]2[C@@H]1OC[C@@H]2N1CCCC1
test.system: narcotised guinea pigs
blood pressure after / mm.Hg: 65.75
//
molecule: CCN[C@H]1CO[C@H]2[C@@H]1OC[C@@H]2O[N+](=O)[O-]
test.system: narcotised guinea pigs
blood pressure after / mm.Hg: 37.25
//
molecule: CC(C)(C)C(=O)N[C@H]1CO[C@H]2[C@@H]1OC[C@@H]2O[N+](=O)[O-]
test.system: narcotised guinea pigs
blood pressure after / mm.Hg: 54.00
//
molecule: N[C@@H]1CO[C@H]2[C@@H]1OC[C@@H]2O[N+](=O)[O-]
test.system: narcotised guinea pigs
blood pressure after / mm.Hg: 50.25

###

Listed here: items and their measured dp/dt (inotropism) after.
# Tested on: mongrel cats
# procedure.details: Inotropic and heart-circulatory effectiveness on narcotised cats, intravenous
# Type: in vivo, cat
# measurement.setup: 0.25 mg/kg i.v.; 6 animals

molecule: O=[N+]([O-])O[C@H]1CO[C@H]2[C@@H]1OC[C@@H]2NCCCCCc1ccccc1 [Example 30]
dp/dt (inotropism) after, mm.Hg/sec: 8340
--
molecule: O=[N+]([O-])O[C@H]1CO[C@H]2[C@@H]1OC[C@H]2NCC(O)COc1cccc2ccccc12 (stereo partly drawn) [Example 55]
dp/dt (inotropism) after, mm.Hg/sec: 5200
--
molecule: O=[N+]([O-])O[C@H]1CO[C@H]2[C@@H]1OC[C@@H]2NCCCCc1ccccc1 [Example 29]
dp/dt (inotropism) after, mm.Hg/sec: 6000

###

# System: female NMRI-albino mice
# procedure.details: Acute toxicity, intravenous, mice
# Format: in vivo
# measurement.setup: 100 mg/kg i.v., within 24 hours

compound: COc1ccc(OCC(O)CN[C@H]2CO[C@H]3[C@@H]2OC[C@@H]3O[N+](=O)[O-])cc1 (some centres unmarked)
Frequency of death: 0/3

compound: N#Cc1ccccc1OCC(O)CN[C@H]1CO[C@H]2[C@@H]1OC[C@@H]2O[N+](=O)[O-] (some centres unmarked)
Frequency of death: 0/3

compound: O=[N+]([O-])O[C@H]1CO[C@H]2[C@@H]1OC[C@@H]2NCCCCc1ccccc1
Frequency of death: 5/6

compound: O=[N+]([O-])O[C@H]1CO[C@H]2[C@@H]1OC[C@@H]2NCCOc1ccccc1
Frequency of death: 2/6

compound: CN(CCCc1ccccc1)[C@H]1CO[C@H]2[C@@H]1OC[C@@H]2O[N+](=O)[O-]
Frequency of death: 3/3

compound: O=[N+]([O-])O[C@H]1CO[C@H]2[C@@H]1OC[C@@H]2NCCCCOc1ccccc1
Frequency of death: 10/10

compound: COc1cccc(OCCCN[C@H]2CO[C@H]3[C@@H]2OC[C@@H]3O[N+](=O)[O-])c1OC
Frequency of death: 3/3

compound: O=[N+]([O-])O[C@H]1CO[C@H]2[C@@H]1OC[C@@H]2NCc1ccccc1
Frequency of death: 0/3

compound: O=[N+]([O-])O[C@H]1CO[C@H]2[C@@H]1OC[C@@H]2NCCCOc1ccc(Cl)cc1Cl
Frequency of death: 0/6

compound: CN(CCCCc1ccccc1)[C@H]1CO[C@H]2[C@@H]1OC[C@@H]2O[N+](=O)[O-]
Frequency of death: 3/3

compound: O=[N+]([O-])O[C@H]1CO[C@H]2[C@@H]1OC[C@@H]2NCCCOc1cccc(C(F)(F)F)c1
Frequency of death: 7/12

###

# System: mongrel cats
# procedure.details: Inotropic and heart-circulatory effectiveness on narcotised cats, intravenous
# Format: in vivo, cat
# measurement.setup: 0.25 mg/kg i.v.; 6 animals

compound: C=CCc1ccccc1OCC(O)CN[C@H]1CO[C@H]2[C@@H]1OC[C@@H]2O[N+](=O)[O-] (some centres unmarked)
unit: mm.Hg/sec
dp/dt (inotropism) Δ: -480
//
compound: CCOc1ccccc1OCC(O)CN[C@H]1CO[C@H]2[C@@H]1OC[C@@H]2O[N+](=O)[O-] (some centres unmarked)
unit: mm.Hg/sec
dp/dt (inotropism) Δ: -900
//
compound: O=[N+]([O-])O[C@H]1CO[C@H]2[C@@H]1OC[C@@H]2NCCCc1ccccc1
unit: mm.Hg/sec
dp/dt (inotropism) Δ: -267
//
compound: O=[N+]([O-])O[C@H]1CO[C@H]2[C@@H]1OC[C@@H]2NCCCCc1ccccc1
unit: mm.Hg/sec
dp/dt (inotropism) Δ: -480
//
compound: N#Cc1ccccc1OCC(O)CN[C@H]1CO[C@H]2[C@@H]1OC[C@@H]2O[N+](=O)[O-] (some centres unmarked)
unit: mm.Hg/sec
dp/dt (inotropism) Δ: -500
//
compound: O=[N+]([O-])O[C@H]1CO[C@H]2[C@@H]1OC[C@@H]2NCC(O)COc1cccc(C(F)(F)F)c1 (some centres unmarked)
unit: mm.Hg/sec
dp/dt (inotropism) Δ: -633
//
compound: O=[N+]([O-])O[C@H]1CO[C@H]2[C@@H]1OC[C@@H]2NCCCOc1ccccc1
unit: mm.Hg/sec
dp/dt (inotropism) Δ: -500
//
compound: O=[N+]([O-])O[C@H]1CO[C@H]2[C@@H]1OC[C@@H]2NCC(O)COc1cccc2ccccc12 (some centres unmarked)
unit: mm.Hg/sec
dp/dt (inotropism) Δ: -633

###

# System: mongrel cats
# procedure.details: Inotropic and heart-circulatory effectiveness on narcotised cats, intravenous
# Type: in vivo, cat
# measurement.setup: 0.25 mg/kg i.v.; 6 animals

compound: CN(CCCOc1ccccc1)[C@H]1CO[C@H]2[C@@H]1OC[C@@H]2O[N+](=O)[O-]
dp/dt (inotropism) Δ [mm.Hg/sec]: -683

compound: O=[N+]([O-])O[C@H]1CO[C@H]2[C@@H]1OC[C@H]2NCC(O)COc1cccc2ccccc12 (stereo partly drawn)
dp/dt (inotropism) Δ [mm.Hg/sec]: -433

compound: O=[N+]([O-])O[C@H]1CO[C@H]2[C@@H]1OC[C@@H]2NCCCCCc1ccccc1
dp/dt (inotropism) Δ [mm.Hg/sec]: -1260

###

# System: mongrel cats
# procedure.details: Inotropic and heart-circulatory effectiveness on narcotised cats, intravenous
# Type: in vivo, cat
# measurement.setup: 0.50 mg/kg i.v.; 6 animals

compound: O=[N+]([O-])O[C@H]1CO[C@H]2[C@@H]1OC[C@@H]2NCCCCc1ccccc1 [Example 29]
unit: min
dp/dt WD: 8.2

compound: O=[N+]([O-])O[C@H]1CO[C@H]2[C@@H]1OC[C@@H]2NCC(O)COc1cccc2ccccc12 (stereo partly shown) [Example 54]
unit: min
dp/dt WD: 7.6

compound: N#Cc1ccccc1OCC(O)CN[C@H]1CO[C@H]2[C@@H]1OC[C@@H]2O[N+](=O)[O-] (stereo partly shown) [Example 50]
unit: min
dp/dt WD: 8.2

compound: O=[N+]([O-])O[C@H]1CO[C@H]2[C@@H]1OC[C@@H]2NCC(O)COc1cccc(C(F)(F)F)c1 (stereo partly shown) [Example 52]
unit: min
dp/dt WD: 10.5
